Provenance of the data: ChEMBL document CHEMBL6134889

# TEST_SYSTEM: Proteasomal ubiquitin receptor ADRM1/Bromodomain-containing protein 4 (Homo sapiens, UniProt O60885+Q16186)
# TEST_METHOD_NOTES: BYETAC activity at 26S proteasome subunit Rpn13/BRD4 in human Ramos cells assessed as induction of BRD4 degradation by measuring remaining activity at 100 nM incubated for 18 hrs by Western blot analysis (reference value: 100 %)
# Assay type: cell-based
This listing pairs compounds with measured Activity.

[
  {
    "COMPOUND": "Cc1sc2c(c1C)C(c1ccc(Cl)cc1)=N[C@@H](CC(=O)NCCOCCOCCOCCOCCOCCNC(=O)CC1Sc3nnc(Cc4ccc(Br)cc4)n3N=C1c1ccc(Cl)cc1)c1nnc(C)n1-2 (some centres undefined)",
    "RESULT_UNIT": "%",
    "Activity": 87
  },
  {
    "COMPOUND": "Cc1sc2c(c1C)C(c1ccc(Cl)cc1)=N[C@@H](CC(=O)NCCOCCOCCOCCOCCOCCOCCOCCNC(=O)CC1Sc3nnc(Cc4ccc(Br)cc4)n3N=C1c1ccc(Cl)cc1)c1nnc(C)n1-2 (some centres undefined)",
    "RESULT_UNIT": "%",
    "Activity": 100
  },
  {
    "COMPOUND": "Cc1sc2c(c1C)C(c1ccc(Cl)cc1)=N[C@@H](CC(=O)NCCOCCOCCOCCOCCNC(=O)CC1Sc3nnc(Cc4ccc(Br)cc4)n3N=C1c1ccc(Cl)cc1)c1nnc(C)n1-2 (some centres undefined)",
    "RESULT_UNIT": "%",
    "Activity": 55
  },
  {
    "COMPOUND": "Cc1sc2c(c1C)C(c1ccc(Cl)cc1)=N[C@@H](CC(=O)NCCOCCOCCOCCNC(=O)CC1Sc3nnc(Cc4ccc(Br)cc4)n3N=C1c1ccc(Cl)cc1)c1nnc(C)n1-2 (some centres undefined)",
    "RESULT_UNIT": "%",
    "Activity": 69
  }
]

====

# Test system: Ramos
# TEST_METHOD_NOTES: Antiproliferative activity against human Ramos cells assessed as reduction in cell viability incubated for 48 hrs
# Type: functional, cell-based
pIC50: −log10 of the molar value.
This listing pairs compounds with measured pIC50.

[
  {
    "COMPOUND": "Cc1sc2c(c1C)C(c1ccc(Cl)cc1)=N[C@@H](CC(=O)Nc1ccc(OCCOCCOCCOCCNc3cccc4c3C(=O)N(C3CCC(=O)NC3=O)C4=O)cc1)c1nnc(C)n1-2 (some centres not stated)",
    "TEST_SYSTEM": "Ramos",
    "pIC50": 8.72
  },
  {
    "COMPOUND": "Cc1sc2c(c1C)C(c1ccc(Cl)cc1)=N[C@@H](CC(=O)NCCOCCOCCOCCOCCNC(=O)CC1Sc3nnc(Cc4ccc(Br)cc4)n3N=C1c1ccc(Cl)cc1)c1nnc(C)n1-2 (some centres not stated)",
    "TEST_SYSTEM": "Ramos",
    "pIC50": 7.52
  }
]

====

# TEST_SYSTEM: Proteasomal ubiquitin receptor ADRM1/Bromodomain-containing protein 4 (Homo sapiens, UniProt O60885+Q16186)
# TEST_METHOD_NOTES: BYETAC activity at 26S proteasome subunit Rpn13/BRD4 in human Ramos cells assessed as induction of BRD4 degradation by measuring remaining activity at 10 nM incubated for 18 hrs by Western blot analysis (reference value: 100 %)
# Type: cell-based

[
  {
    "COMPOUND": "Cc1sc2c(c1C)C(c1ccc(Cl)cc1)=N[C@@H](CC(=O)NCCOCCOCCOCCOCCNC(=O)CC1Sc3nnc(Cc4ccc(Br)cc4)n3N=C1c1ccc(Cl)cc1)c1nnc(C)n1-2 (some centres undefined)",
    "Activity": "91%"
  },
  {
    "COMPOUND": "Cc1sc2c(c1C)C(c1ccc(Cl)cc1)=N[C@@H](CC(=O)NCCOCCOCCOCCNC(=O)CC1Sc3nnc(Cc4ccc(Br)cc4)n3N=C1c1ccc(Cl)cc1)c1nnc(C)n1-2 (some centres undefined)",
    "Activity": "111%"
  },
  {
    "COMPOUND": "Cc1sc2c(c1C)C(c1ccc(Cl)cc1)=N[C@@H](CC(=O)NCCOCCOCCOCCOCCOCCNC(=O)CC1Sc3nnc(Cc4ccc(Br)cc4)n3N=C1c1ccc(Cl)cc1)c1nnc(C)n1-2 (some centres undefined)",
    "Activity": "92%"
  },
  {
    "COMPOUND": "Cc1sc2c(c1C)C(c1ccc(Cl)cc1)=N[C@@H](CC(=O)NCCOCCOCCOCCOCCOCCOCCOCCNC(=O)CC1Sc3nnc(Cc4ccc(Br)cc4)n3N=C1c1ccc(Cl)cc1)c1nnc(C)n1-2 (some centres undefined)",
    "Activity": "107%"
  }
]
